Recorded EC50, one value per entry.
System: PC-12
experimental protocol: Hydrogen peroxide radical scavenging activity in PC12 cell by survival assay
Assay type: functional, cell-based, Homo sapiens
condition notes: Rattus norvegicus, read-out: Log EC50 (converted)
Answer shape: numeric part, then the unit.

Answered cases to consult:
COc1ccc(C2=[N+]([O-])C(C)(C)C(C)(C)N2[O])cc1OC ... 30.2 µM
CC1(C)N([O])C(c2ccccc2)=[N+]([O-])C1(C)C ... 51.3 µM
CC1(C)N([O])C(c2cccc(O)c2)=[N+]([O-])C1(C)C ... 57.5 µM
CC1(C)N([O])C(c2ccc(O)cc2)=[N+]([O-])C1(C)C ... 47.9 µM
CC1(C)N([O])C(c2ccccc2F)=[N+]([O-])C1(C)C ... 75.9 µM
CC1(C)N([O])C(c2ccccc2O)=[N+]([O-])C1(C)C ... 52.5 µM
CC1(C)N([O])C(c2ccccc2[N+](=O)[O-])=[N+]([O-])C1(C)C ... 60.3 µM
Cc1ccc(C2=[N+]([O-])C(C)(C)C(C)(C)N2[O])cc1 ... 38 µM

Look up and state reported EC50 for `CC1(C)N([O])C(c2ccc(Cl)cc2Cl)=[N+]([O-])C1(C)C`
64.6 µM

Give the measured EC50 for `CC1(C)N([O])C(c2ccc(OCC(=O)O)cc2)=[N+]([O-])C1(C)C`
74.1 µM

Cited source: ChEMBL document CHEMBL1147197
